system: HepG2 cell line; experiment: Human cell counter screen (HepG2) cellular toxicity
Consider the following molecules and their measured HepG2 readings.
measurement_kind: HepG2

>>> print(df.to_string())
                                   molecule  reading
0  O=c1cc(-c2ccc(Cc3ccc(OC(F)(F)F)cc3)cc2)[nH]c2ccccc12 [RKA-70]   >50 µM
1  Cc1c(-c2ccc(-c3ccc(OC(F)(F)F)cc3)nc2)[nH]c2ccccc2c1=O [SL-2-25]   >50 µM
2  Cc1c(-c2ccc(Cc3ccc(F)cc3)cc2)[nH]c2ccccc2c1=O [LT-9]   >50 µM
3  Cc1c(-c2ccc(Cc3ccccc3)cc2)[nH]c2ccccc2c1=O [CK-2-88]  >100 µM

* * *

target: M. tuberculosis cytochrome bd-I (Mycobacterium tuberculosis, UniProt L7N662); type: biochemical
Sequence (L7N662 1-485): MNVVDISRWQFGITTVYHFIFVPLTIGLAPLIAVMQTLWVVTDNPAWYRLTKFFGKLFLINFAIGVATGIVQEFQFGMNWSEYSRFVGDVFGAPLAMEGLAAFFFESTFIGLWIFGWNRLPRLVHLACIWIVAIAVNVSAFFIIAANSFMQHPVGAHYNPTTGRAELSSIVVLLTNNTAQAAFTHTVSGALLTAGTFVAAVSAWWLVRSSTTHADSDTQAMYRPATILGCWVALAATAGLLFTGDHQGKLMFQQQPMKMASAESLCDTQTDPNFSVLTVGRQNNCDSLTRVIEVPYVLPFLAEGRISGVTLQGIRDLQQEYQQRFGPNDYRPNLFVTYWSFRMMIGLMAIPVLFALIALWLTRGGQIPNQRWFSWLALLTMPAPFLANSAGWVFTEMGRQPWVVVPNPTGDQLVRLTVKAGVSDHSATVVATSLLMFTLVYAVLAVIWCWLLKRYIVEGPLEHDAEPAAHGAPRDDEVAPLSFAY
measurement_kind: inhibition @ 1 uM (% of cntls)

>>> print(df.to_string())
                                   molecule                measurement_kind          reading
0  Cc1c(-c2ccc(-c3ccccc3F)cc2)[nH]c2ccccc2c1=O  inhibition @ 1 uM (% of cntls)  62.2 % of cntls
1  Cc1c(-c2ccc(Cc3ccc(OC(F)(F)F)cc3)cc2)[nH]c2c(O)cccc2c1=O [SCR-06-03D]  inhibition @ 1 uM (% of cntls)  73.1 % of cntls
2  CCOC(=O)c1c(-c2ccc(-c3ccc(Cl)cc3)cc2)[nH]c2ccccc2c1=O  inhibition @ 1 uM (% of cntls)  87.5 % of cntls
3  CCOC(=O)c1c(-c2ccc(-c3ccc(OC(F)(F)F)cc3)cc2)[nH]c2ccccc2c1=O  inhibition @ 1 uM (% of cntls)  79.4 % of cntls
4  Cc1c(-c2ccc(Oc3ccc(OC(F)(F)F)cc3)nc2)[nH]c2ccccc2c1=O  inhibition @ 1 uM (% of cntls)  62.8 % of cntls

* * *

molecular target: M. tuberculosis cytochrome bd-I (Mycobacterium tuberculosis); type: biochemical
measurement_kind: inhibition @ 1 uM (% of cntls)

>>> df
                                    molecule          reading
 0  Cc1c(-c2ccc(Oc3cccc(OCCN4CCOCC4)c3)cc2)[nH]c2ccccc2c1=O  66.6 % of cntls
 1  COc1ccc(Cc2ccc(-c3[nH]c4ccccc4c(=O)c3C)cc2)cc1  85.7 % of cntls
 2  COc1cccc2[nH]c(-c3ccc(-c4ccc(OC(F)(F)F)cc4)nc3)c(C)c(=O)c12  65.4 % of cntls
 3  COc1ccc2[nH]c(-c3ccc(Cc4ccc(OC(F)(F)F)cc4)cc3)c(C)c(=O)c2c1  60.9 % of cntls
 4  Cc1c(-c2ccc(-c3ccc(C(F)(F)F)cc3)nc2)[nH]c2ccccc2c1=O   >50 % of cntls
 5  O=c1c(-c2ccc(Oc3ccc(OC(F)(F)F)cc3)cc2)c(CO)[nH]c2ccccc12  66.7 % of cntls
 6  Cc1c(-c2ccc(-c3ccccc3C(F)(F)F)cc2)[nH]c2ccccc2c1=O  90.5 % of cntls
 7  Cc1c(-c2ccc(Cc3ccccc3)cc2)[nH]c2ccccc2c1=O  87.5 % of cntls
 8  Cc1c(-c2cccc(Cc3ccc(OC(F)(F)F)cc3)c2)[nH]c2ccccc2c1=O  82.3 % of cntls
 9  CC(C)c1c(-c2cnn(Cc3ccc(OC(F)(F)F)cc3)c2)[nH]c2ccccc2c1=O  81.6 % of cntls
10  Cc1c(-c2ccc(Cc3cccc(OCCN4CCOCC4)c3)cc2)[nH]c2ccccc2c1=O  68.7 % of cntls
11  Cc1c(-c2ccc(OC3CCC(F)(F)CC3)cc2)[nH]c2ccccc2c1=O  71.5 % of cntls
12  O=c1cc(-c2ccc(Cc3ccc(OC(F)(F)F)cc3)cc2)[nH]c2cc(O)c(F)cc12  71.7 % of cntls
13  Cc1c(-c2ccc(Cc3ccc(OC(F)(F)F)cc3)cc2)[nH]c2cc(O)ccc2c1=O [SCR-45-01D]  81.5 % of cntls
